# TEST TARGET: Adenosine receptor A2a (Homo sapiens)
# Sequence (P29274 whole entry): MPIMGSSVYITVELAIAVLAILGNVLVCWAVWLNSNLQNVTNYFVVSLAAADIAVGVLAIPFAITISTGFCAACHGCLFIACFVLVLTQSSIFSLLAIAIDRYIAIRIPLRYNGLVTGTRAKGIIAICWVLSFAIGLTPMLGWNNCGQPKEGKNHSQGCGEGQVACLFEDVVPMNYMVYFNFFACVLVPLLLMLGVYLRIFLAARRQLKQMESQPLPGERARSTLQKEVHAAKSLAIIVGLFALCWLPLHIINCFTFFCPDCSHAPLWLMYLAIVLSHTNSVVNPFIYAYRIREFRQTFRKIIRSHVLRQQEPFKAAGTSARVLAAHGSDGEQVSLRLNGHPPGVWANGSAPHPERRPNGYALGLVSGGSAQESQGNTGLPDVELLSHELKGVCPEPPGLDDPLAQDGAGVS
# ASSAY EXPLANATION: Displacement of [3H]ZM241385 from human recombinant adenosine A2A receptor expressed in human HeLa cells at 1 uM by microplate beta scintillation counter
# Assay type: cell-based
OBSERVABLE: Activity (%)

I = O=c1c2[nH]c(Cc3cccs3)nc2n(CC2CCCCC2)c(=O)n1CC1CCCCC1
II = CCCn1c(=O)c2[nH]c(Cc3ccccc3)nc2n(CCOCC)c1=O
III = CCn1c(=O)c2[nH]c(Cc3ccccc3)nc2n(CC[S+]([O-])CC)c1=O (stereo not drawn)
Query :: Could you put the items above in increasing order of their Activity? Order the labels as requested and give them as your answer.
Result :: III, II, I

Ref: ChEMBL document CHEMBL1157555
